System: E. faecalis VRE 6
Experiment: MIC, broth microdilution, vancomycin-resistant E. faecalis VRE 6 (VanA)
Format: cell-based, Enterococcus faecalis
Conditions: Enterococcus faecalis VRE 6 (vancomycin-resistant); read-out: MIC
Experimental endpoint: MIC (µM)
Answers are plain numbers, in µM.

Example results:
CNC(CC(C)C)C(=O)NC1C(=O)NC(CC(N)=O)C(=O)NC2C(=O)NC3C(=O)NC(C(=O)NC(C(=O)NCC(=O)Nc4ccc(-c5ccc(OC)cc5)cc4)c4cc(O)cc(O)c4-c4cc3ccc4O)C(O)c3ccc(c(Cl)c3)Oc3cc2cc(c3OC2OC(CO)C(O)C(O)C2OC2CC(C)(N)C(O)C(C)O2)Oc2ccc(cc2Cl)C1O (stereo not drawn) [Vanc-57]	1.56
CNC(CC(C)C)C(=O)NC1C(=O)NC(CC(N)=O)C(=O)NC2C(=O)NC3C(=O)NC(C(=O)NC(C(=O)NCCCNC(=O)c4cc5ccccc5s4)c4cc(O)cc(O)c4-c4cc3ccc4O)C(O)c3ccc(c(Cl)c3)Oc3cc2cc(c3OC2OC(CO)C(O)C(O)C2OC2CC(C)(N)C(O)C(C)O2)Oc2ccc(cc2Cl)C1O (stereo not drawn) [Vanc-26]	3.13
CN[C@H](CC(C)C)C(=O)N[C@H]1C(=O)N[C@@H](CC(N)=O)C(=O)N[C@H]2C(=O)N[C@H]3C(=O)N[C@H](C(=O)N[C@H](C(=O)NCC(=O)Nc4ccc(Cl)cn4)c4cc(O)cc(O)c4-c4cc3ccc4O)[C@H](O)c3ccc(c(Cl)c3)Oc3cc2cc(c3O[C@@H]2O[C@H](CO)[C@@H](O)[C@H](O)[C@H]2O[C@H]2C[C@](C)(N)[C@H](O)[C@H](C)O2)Oc2ccc(cc2Cl)[C@H]1O [Vanc-44]	12.5

State the recorded MIC for every item in the following list.
1. CC(=O)NC[C@H]1CN(c2ccc(N3CCOCC3)c(F)c2)C(=O)O1 [Linezolid, reference compound]
2. CN[C@H](CC(C)C)C(=O)N[C@H]1C(=O)N[C@@H](CC(N)=O)C(=O)N[C@H]2C(=O)N[C@H]3C(=O)N[C@H](C(=O)N[C@H](C(=O)NCC(=O)Nc4cc(C)ccc4O)c4cc(O)cc(O)c4-c4cc3ccc4O)[C@H](O)c3ccc(c(Cl)c3)Oc3cc2cc(c3O[C@@H]2O[C@H](CO)[C@@H](O)[C@H](O)[C@H]2O[C@H]2C[C@](C)(N)[C@H](O)[C@H](C)O2)Oc2ccc(cc2Cl)[C@H]1O [Vanc-18]
3. CNC(CC(C)C)C(=O)NC1C(=O)NC(CC(N)=O)C(=O)NC2C(=O)NC3C(=O)NC(C(=O)NC(C(=O)NCC(=O)Nc4ccc(C(=O)NCCCN(C)C)cc4)c4cc(O)cc(O)c4-c4cc3ccc4O)C(O)c3ccc(c(Cl)c3)Oc3cc2cc(c3OC2OC(CO)C(O)C(O)C2OC2CC(C)(N)C(O)C(C)O2)Oc2ccc(cc2Cl)C1O (stereo not drawn) [Vanc-82]

Solution:
1. 12.5
2. 12.5
3. 6.25

State the recorded MIC for every item in the following list.
1. CN[C@H](CC(C)C)C(=O)N[C@H]1C(=O)N[C@@H](CC(N)=O)C(=O)N[C@H]2C(=O)N[C@H]3C(=O)N[C@H](C(=O)N[C@H](C(=O)NCC(=O)Nc4cccc5ccccc45)c4cc(O)cc(O)c4-c4cc3ccc4O)[C@H](O)c3ccc(c(Cl)c3)Oc3cc2cc(c3O[C@@H]2O[C@H](CO)[C@@H](O)[C@H](O)[C@H]2O[C@H]2C[C@](C)(N)[C@H](O)[C@H](C)O2)Oc2ccc(cc2Cl)[C@H]1O [Vanc-41]
2. CCCCCCc1ccc(NC(=O)CNC(=O)[C@H]2NC(=O)[C@H]3NC(=O)[C@H](NC(=O)[C@@H]4NC(=O)[C@H](CC(N)=O)NC(=O)[C@H](NC(=O)[C@@H](CC(C)C)NC)[C@H](O)c5ccc(c(Cl)c5)Oc5cc4cc(c5O[C@@H]4O[C@H](CO)[C@@H](O)[C@H](O)[C@H]4O[C@H]4C[C@](C)(N)[C@H](O)[C@H](C)O4)Oc4ccc(cc4Cl)[C@H]3O)c3ccc(O)c(c3)-c3c(O)cc(O)cc32)cc1 [Vanc-75]
3. CNC(CC(C)C)C(=O)NC1C(=O)NC(CC(N)=O)C(=O)NC2C(=O)NC3C(=O)NC(C(=O)NC(C(=O)NCC(=O)Nc4ccc(-c5cn(-c6ccc(C)cc6)nn5)cc4)c4cc(O)cc(O)c4-c4cc3ccc4O)C(O)c3ccc(c(Cl)c3)Oc3cc2cc(c3OC2OC(CO)C(O)C(O)C2OC2CC(C)(N)C(O)C(C)O2)Oc2ccc(cc2Cl)C1O (stereo not drawn) [Vanc-76]
4. CNC(CC(C)C)C(=O)NC1C(=O)NC(CC(N)=O)C(=O)NC2C(=O)NC3C(=O)NC(C(=O)NC(C(=O)NCC(=O)Nc4ccc(O)cc4)c4cc(O)cc(O)c4-c4cc3ccc4O)C(O)c3ccc(c(Cl)c3)Oc3cc2cc(c3OC2OC(CO)C(O)C(O)C2OC2CC(C)(N)C(O)C(C)O2)Oc2ccc(cc2Cl)C1O (stereo not drawn) [Vanc-1]

Solution:
1. 6.25
2. 3.13
3. 1.56
4. 25

State the recorded MIC for every item in the following list.
1. CCCCCCCc1ccc(C(=O)NCCCNC(=O)C2NC(=O)C3NC(=O)C(NC(=O)C4NC(=O)C(CC(N)=O)NC(=O)C(NC(=O)C(CC(C)C)NC)C(O)c5ccc(c(Cl)c5)Oc5cc4cc(c5OC4OC(CO)C(O)C(O)C4OC4CC(C)(N)C(O)C(C)O4)Oc4ccc(cc4Cl)C3O)c3ccc(O)c(c3)-c3c(O)cc(O)cc32)cc1 (stereo not drawn) [Vanc-31]
2. CNC(CC(C)C)C(=O)NC1C(=O)NC(CC(N)=O)C(=O)NC2C(=O)NC3C(=O)NC(C(=O)NC(C(=O)NCCNC(=O)C4c5ccccc5-c5ccccc54)c4cc(O)cc(O)c4-c4cc3ccc4O)C(O)c3ccc(c(Cl)c3)Oc3cc2cc(c3OC2OC(CO)C(O)C(O)C2OC2CC(C)(N)C(O)C(C)O2)Oc2ccc(cc2Cl)C1O (stereo not drawn) [Vanc-46]

Solution:
1: 0.39; 2: 6.25

Entry source: paper PMC6001238
